# key: entry, value: IC50
target: PDE4 (Homo sapiens, UniProt Q08499); assay: In-vitro assay for PDE4 enzymes, real-time enzyme-coupled spectrophotometric assay (Table 9); format: biochemical; conditions: human PDE4D; activity class, Table 9; read-out: hPDE4D
Sequence (Q08499 whole entry): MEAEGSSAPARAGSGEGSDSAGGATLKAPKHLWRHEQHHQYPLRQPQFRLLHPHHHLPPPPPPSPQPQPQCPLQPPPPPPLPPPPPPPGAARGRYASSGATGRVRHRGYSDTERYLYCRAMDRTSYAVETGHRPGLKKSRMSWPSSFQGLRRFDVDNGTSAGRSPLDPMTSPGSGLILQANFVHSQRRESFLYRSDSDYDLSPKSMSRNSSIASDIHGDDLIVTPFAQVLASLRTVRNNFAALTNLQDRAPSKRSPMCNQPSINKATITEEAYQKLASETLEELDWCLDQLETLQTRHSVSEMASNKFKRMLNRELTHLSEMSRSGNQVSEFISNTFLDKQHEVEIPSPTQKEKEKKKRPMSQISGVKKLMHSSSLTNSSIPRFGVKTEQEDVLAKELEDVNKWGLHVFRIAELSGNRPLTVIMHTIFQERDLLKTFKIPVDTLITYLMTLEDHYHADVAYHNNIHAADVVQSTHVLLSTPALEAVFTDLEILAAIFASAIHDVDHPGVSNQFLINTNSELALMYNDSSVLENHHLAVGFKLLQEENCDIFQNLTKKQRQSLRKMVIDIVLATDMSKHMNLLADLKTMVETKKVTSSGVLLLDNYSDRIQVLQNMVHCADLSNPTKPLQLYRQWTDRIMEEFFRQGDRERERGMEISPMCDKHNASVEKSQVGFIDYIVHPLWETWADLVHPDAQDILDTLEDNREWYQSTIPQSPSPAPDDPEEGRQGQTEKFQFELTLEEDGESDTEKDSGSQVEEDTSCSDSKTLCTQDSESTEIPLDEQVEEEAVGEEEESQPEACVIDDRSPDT
Where a name gives a salt, the structure may show the parent alone.

Below, 5 compounds whose answers are already recorded.
- COc1ccc(Cc2ccc(F)cc2)c(C#N)c1-c1cccc([N+](=O)[O-])c1: < 5 µM
- COc1ccc(Cn2nc3ccccn3c2=O)cc1-c1cccc([N+](=O)[O-])c1: 5 to 20 µM
- COc1ccc(Cc2cnc(NS(C)(=O)=O)nc2)c(F)c1-c1cccc(Cl)c1: < 5 µM
- COc1ccc(N(C)c2ccc(N)cc2)cc1-c1cccc(Cl)c1 [P-288, hydrochloride]: < 5 µM
- Cn1nccc1Cc1ccc(OC(F)F)c(-c2ccc3c(c2)OCO3)c1: 5 to 20 µM

For the next question, use this compound.
Prompt line: // Input: "COc1ccc(Cc2ccc(S(N)(=O)=O)cc2)cc1-c1cccc(Cl)c1" . Output its IC50 only.
Response line: < 5 µM
